Test system: Nanoluciferase (engineered Oplophorus gracilirostris luciferase)
Assay: Primary Nanoluciferase (NLuc) qHTS assay for identification of artifact compounds. (AID 1845222);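 note: NLuc secreted into diluted conditioned medium of S16 cells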
Conditions: NLuc-conditioned medium, Nano-Glo luminescence, 5 min; series mostly up to 54.1 µM
Activity calls are given as the source filed them. Calls come from the whole dose curve; as a rule, active = well fitted inhibition curve with a large enough effect; inconclusive = small, poorly fitted or top-dose-only effect; inactive = flat fitted curve, though single readings scatter.
experimental_readout: activity, negative = inhibition

In the examples that follow, each entry is paired with its recorded activity, negative = inhibition.
# compound, system_name, activity, negative = inhibition
records = [
    ("Fc1ccc(-c2cncc(CN3CCN(c4cccc5c4OCCO5)CC3)c2)cc1", "Nanoluciferase (engineered Oplophorus gracilirostris luciferase)", "inactive"),
    ("CCN(Cc1cc(Nc2nc(C)cn3c(-c4cn[nH]c4)cnc23)sn1)C(C)(C)CO", "Nanoluciferase (engineered Oplophorus gracilirostris luciferase)", "inactive"),
    ("Cc1c(F)ccc(C(=O)Nc2cc([N+](=O)[O-])ccc2N2CCN(C)CC2)c1Cl", "Nanoluciferase (engineered Oplophorus gracilirostris luciferase)", "inactive"),
    ("CC[C@H](C)/C=C(C)/C=C/C1=CC2=CC(=O)[C@]3(C)OC(=O)[C@@H](C(C)=O)[C@@H]3C2=CO1", "Nanoluciferase (engineered Oplophorus gracilirostris luciferase)", "inactive"),
]

[ask] Item CC[C@@H]1C[C@]1(NC(=O)[C@@H]1C[C@@H]2CN1C(=O)[C@H](C(C)(C)C)NC(=O)OCC(C)(C)CCCCc1cccc3c1CN(C3)C(=O)O2)C(=O)NS(=O)(=O)C1CC1 has what recorded activity, negative = inhibition?
[reply] inactive

[ask] # lookup: activity, negative = inhibition of COc1ccc(CCCN2CCC(COC(c3ccccc3)c3ccccc3)CC2)cc1
[reply] inactive

[ask] Please look up its activity, negative = inhibition: Cc1cc(C)nc(SCC(=O)Nc2ncc(Cc3cccc4ccccc34)s2)n1
[reply] inactive

[ask] Query (compound): CCC(C)/C=C(C)/C=C/C1=CC2=CC(=O)C3(C)OC(C)(O)C(C(=O)OC)C3C2=CO1 (stereo not drawn) ; field requested: activity, negative = inhibition
[reply] inactive

---

Assay: Primary qHTS for inhibitors of nuclear receptor binding SET domain protein 2 (NSD2) in an isogenic RCH-ACV NSD2 p.E1099K mutant (9B) (AID 1645876); note: nearly all actives have a fitted effect of over 70% in size
Conditions: RCH-ACV (leukaemia line) NSD2 E1099K (9B) viability, CellTiter-Glo, 72 h; series mostly up to 44.9 µM
Results filed as inconclusive are left out. Activity calls are given as the source filed them. Calls follow the shape of the dose curve; as a rule, active = well fitted inhibition curve with a large enough effect; inconclusive = small, poorly fitted or top-dose-only effect; inactive = flat fitted curve, though single readings scatter.
I would appreciate it if you answered using one of these outcomes: Y (active), N (inactive)

[ask] Answer briefly: the call reported for NCC(CNc1nc(Nc2cccc(NC(=O)N3CCCC3)c2)ncc1I)C(=O)c1cccs1 (centres undefined) in this assay.
[reply] Y

[ask] Outcome? Cc1nnc(C[C@@H]2C=C(c3ccc(Cl)cc3)c3ccccc3-n3c(C)nnc32)o1
[reply] Y

[ask] Per the records of this test, what outcome belongs to C[C@H]1[C@H](/C=C/c2ccc(-c3ccccc3C#N)cn2)[C@@H]2[C@@H](C)OC(=O)[C@@H]2C[C@@H]1C ?
[reply] Y

[ask] What is the recorded call for this compound in the test? Cc1nc(Nc2cnn(C3CCNCC3)c2)nc2c1N(C)C(=O)c1cc3ccccc3cc1N2C
[reply] Y

[ask] Recorded test outcome, item O=C(c1ccccc1)c1c(O)cc(O)cc1O[C@@H]1O[C@H](CO)[C@@H](O)[C@H](O)[C@H]1O
[reply] N

[ask] Recorded test outcome, item O=C(Nc1ccccc1Cl)c1cnc2ccc(C3CCNCC3)cn12
[reply] Y

[ask] # fetch the recorded call for Cc1cc(N2CCN(C(=O)Oc3ccc(-c4ccccc4)cn3)CC2)c2ccccc2n1 here
[reply] Y

[ask] Please let me know the test result on file for O=c1[nH]cnc2c([C@@H]3N[C@H](CO)[C@@H](O)[C@H]3O)c[nH]c12 .
[reply] N

[ask] Recorded test outcome, item C[C@@H](NC(=O)c1ccc(C#Cc2cccc(F)c2)cn1)C(C)(C)O
[reply] N
